- Test: yeast display, Sf9 membrane polyspecificity reagent, FACS + sequencing; frameworks hold sequencing errors
Measured attribute: polyreactivity (PSR sort gate)

Illustrative cases are given below, each with its answer.
Sequence content	polyreactivity (PSR sort gate)
QVQLVESGGGLVQAGGSLRLSCAASGFIFGINAMGWYRQAPGKERELVAAISKRTGSTYYADSVKGRFTISRDTAKNTVYLQMNSLKPEDTAVYYCNVVRYNGLDKYDYWGQGTQVTVSS	high polyreactivity
QVKLVESGGGLVQAGGSLSLSCAATGIIFRFYSMGCYRQAPGKERELVAVITSRSDSTYYADSVKGRFTISRDNAKNTFYLQKNSLKPEDTAVYYCNARYPWYYRYSTYDYWGQGTQVTVSS	high polyreactivity
QVQLVESGGGLDQARGSLRLSCAASGSTFYLYAMGWYRQAPGKERELVAAISSGGRTYYADSVKGRFTISRDNAKNTVYLQMNSLKPEDTAVYYCAKVYRRRYYWGQGTQVTVSS	high polyreactivity
QVQLVESAGGLVQAGARLRLSCAASGFTFQYYALGWYRQAPGKERELVATISTSGGNTYYADSVKGRFTITRDNAKNTVYLQMNSLKPEDTAVYYCAARRYRASSRGYGYWGQGTQVTVSS	high polyreactivity
QVQLVESGGGLVQAGGSLRLSCAASGFTFGSYAMGWYRQAPGKERELVAAIRQSATRTYYADSVKGRFTISRDNAKNTVYLQMNSLKPEDTAVYYCNVARPGKYFYIYDYWGQGTQVTVSS	low polyreactivity
QVQLVESGGGLVQAGGSLRLSCAASGFIFRQYAMGWYRQAPGKERELVAAISWSGGSTYYADSVKGRFTISRDNAKNTVYLQMNSLKPEDTAVYYCNVLTPPTDYDYWGQGTQVTVSS	high polyreactivity

QVQLVESGGGLVQAGGSLRLSCAASGSIFWLYAMGWYRQAPGKERELVAAISWSGTSTNYADSVKGRFTISRDNAKNTVYLQMNSLKPEDTAVYYCAAKWHVRGRGARYRYDYDYWGQGTQVTVSS yielded polyreactivity (PSR sort gate) of low polyreactivity

QVQLVESGGGLVQAGGSLRLSCAASGRIFQNYAMGWYRQAHGKERELVATISSGVSTYYADSVKGRFTISRDNAKNTVYLQMNSLKPEDTAVNYCAAYVPWFEMDYWGQGTQVTVSS yielded polyreactivity (PSR sort gate) of low polyreactivity

QVHLVESGGGLVQAGGSLRLSSAASGRIFPWNAMGWYRQAPGKERELVAAISFSAGRTYYADSVKGRFTISRDNAKNTVYLQMNSLKPEDTAVYYCNARIGSRGVWTGIIGYEYWGQGTQVTVSS yielded polyreactivity (PSR sort gate) of low polyreactivity

QDQLVESAGGLLQAGGSLRLSCAASGSTFKYNAMGWYRQAPGKERELVDSITRGGNTNYADSVKGRFTISRDNAKNTVYLLMNSLKTEDTAFYYCAAQLMRDLRSPYSYNYWGQGTQVTVSS yielded polyreactivity (PSR sort gate) of low polyreactivity

QVQLVESGGGLVQAGGSLRLSCAASGLTLQPYAMGWSRQAPRNERELVAAITSGGSTYYADSVKGRFTISRDNAKNTVYLQMNSLKPEDTAVYYCAATVSYDFGYVAVSYDYWGQGTQVTVSS yielded polyreactivity (PSR sort gate) of low polyreactivity

Source: the nanobody polyreactivity screen of Harvey et al. (2022)
